Assay text: Displacement of [3H]dexamethasone from human glucocorticoid receptor alpha
pIC50: −log10 of the molar value.
Endpoint name: pIC50

A. C[C@]12Cc3cnn(-c4ccc(F)cc4)c3C=C1CC[C@@H]2[C@@H](O)c1cc2ccccc2s1
B. C[C@]12Cc3cnn(-c4ccc(F)cc4)c3C=C1CCC[C@@H]2[C@@H](O)c1ccsc1
C. C[C@]12Cc3cnn(-c4ccc(F)cc4)c3C=C1CC[C@@H]2[C@H](O)c1cc2ccccc2s1
Rank the compounds listed above in increasing order of pIC50. Labels, requested order. C, A, B
(C: 6.16, A: 7.16, B: 8.29)

----------
Assay text: Displacement of [3H]dexamethasone from human glucocorticoid receptor alpha
pIC50: −log10 of the molar value.
Endpoint name: pIC50

a. C[C@]12Cc3cnn(-c4ccc(F)cc4)c3C=C1CCC[C@@H]2[C@H](O)c1csc2ccccc12
b. C[C@]12Cc3cnn(-c4ccc(F)cc4)c3C=C1CCC[C@@H]2[C@@H](O)c1csc2ccccc12
c. C[C@]12Cc3cnn(-c4ccc(F)cc4)c3C=C1CC[C@@H]2[C@H](O)c1ccc2ccccc2c1
d. C[C@]12Cc3cnn(-c4ccc(F)cc4)c3C=C1CC[C@@H]2[C@@H](O)c1ccc2ccccc2c1
Which order do these items take when sorted by rising pIC50? List them. # list labels per requested ordering c, d, b, a
(c: 6.70, d: 7.07, b: 8.29, a: 8.82)

All values here come from ChEMBL document CHEMBL1148027.
